enrichment ratio for assorted variants
B1: PhoQ; a variant is named by its letters at X, in order, P23837 (parent)
chain: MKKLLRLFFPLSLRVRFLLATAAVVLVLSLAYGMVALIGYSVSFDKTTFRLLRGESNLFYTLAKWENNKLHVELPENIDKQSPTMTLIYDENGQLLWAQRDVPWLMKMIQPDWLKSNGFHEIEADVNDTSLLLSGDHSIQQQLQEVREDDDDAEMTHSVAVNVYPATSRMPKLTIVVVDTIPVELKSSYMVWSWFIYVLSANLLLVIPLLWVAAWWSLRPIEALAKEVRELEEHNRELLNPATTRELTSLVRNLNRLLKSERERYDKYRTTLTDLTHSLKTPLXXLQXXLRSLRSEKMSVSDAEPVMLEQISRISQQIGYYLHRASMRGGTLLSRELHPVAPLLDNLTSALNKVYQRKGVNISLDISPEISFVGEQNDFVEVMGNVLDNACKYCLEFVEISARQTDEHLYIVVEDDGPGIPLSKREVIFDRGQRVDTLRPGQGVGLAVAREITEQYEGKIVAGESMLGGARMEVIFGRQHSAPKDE

variants of: B1; assay: enrichment ratio after two sorts for PhoP signalling (ratio (wild type AVST 3.29)); higher = more functional; details: with PhoP (E. coli)
In all, about 140,000 sequences were measured (“enrichment ratio after two sorts for PhoP signalling”: median about 0, highest 2% from about 11 on). The sample as a whole holds a higher share of the highest values than the screen did.

Here are 2 variants together with their reported answers.
[[record]]
changes = "WFIY"
measure = "enrichment ratio"
measured = "≤ 0.25"

[[record]]
changes = "GCLL"
measure = "enrichment ratio"
measured = 18.3


Give its enrichment ratio value. Item: ERRA
≤ 0.25

Give its enrichment ratio value. Item: TVFP
≤ 0.25

Give its enrichment ratio value. Item: LNLL
≤ 0.25

Give its enrichment ratio value. Item: RRDC
≤ 0.25

Give its enrichment ratio value. Item: KTHN
≤ 0.25
